- systemName: recombinant human MAO-A (Homo sapiens, UniProt P21397)
- Sequence (P21397 whole entry): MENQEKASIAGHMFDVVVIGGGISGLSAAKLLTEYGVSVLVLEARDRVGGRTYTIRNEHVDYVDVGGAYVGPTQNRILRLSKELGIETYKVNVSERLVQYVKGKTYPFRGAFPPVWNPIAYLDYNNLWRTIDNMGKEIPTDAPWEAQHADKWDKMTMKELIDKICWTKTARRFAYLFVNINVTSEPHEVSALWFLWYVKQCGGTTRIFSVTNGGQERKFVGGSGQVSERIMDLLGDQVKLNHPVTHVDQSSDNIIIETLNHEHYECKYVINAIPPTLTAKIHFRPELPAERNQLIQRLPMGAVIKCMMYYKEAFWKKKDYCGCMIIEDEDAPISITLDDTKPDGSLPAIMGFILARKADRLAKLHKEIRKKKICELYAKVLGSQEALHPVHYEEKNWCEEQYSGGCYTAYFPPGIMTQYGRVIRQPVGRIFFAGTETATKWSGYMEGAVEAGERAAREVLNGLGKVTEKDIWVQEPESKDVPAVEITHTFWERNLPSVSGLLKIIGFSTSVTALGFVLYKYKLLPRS
- assaySummary: Monoamine oxidase-A inhibition assay (Amplex red fluorescence)
- Format: biochemical
pIC50: −log10 of the molar value.
measureName: pIC50

> print(dat)
                                 smilescode  result
1  COc1cc(/C=C2\Oc3cc(OCCN4CCCC4)ccc3C2=O)cc(OC)c1OC  < 4.00

====

- systemName: recombinant human MAO-B (Homo sapiens, UniProt P27338)
- Construct: purchased Sigma Aldrich
- Sequence (P27338 whole entry): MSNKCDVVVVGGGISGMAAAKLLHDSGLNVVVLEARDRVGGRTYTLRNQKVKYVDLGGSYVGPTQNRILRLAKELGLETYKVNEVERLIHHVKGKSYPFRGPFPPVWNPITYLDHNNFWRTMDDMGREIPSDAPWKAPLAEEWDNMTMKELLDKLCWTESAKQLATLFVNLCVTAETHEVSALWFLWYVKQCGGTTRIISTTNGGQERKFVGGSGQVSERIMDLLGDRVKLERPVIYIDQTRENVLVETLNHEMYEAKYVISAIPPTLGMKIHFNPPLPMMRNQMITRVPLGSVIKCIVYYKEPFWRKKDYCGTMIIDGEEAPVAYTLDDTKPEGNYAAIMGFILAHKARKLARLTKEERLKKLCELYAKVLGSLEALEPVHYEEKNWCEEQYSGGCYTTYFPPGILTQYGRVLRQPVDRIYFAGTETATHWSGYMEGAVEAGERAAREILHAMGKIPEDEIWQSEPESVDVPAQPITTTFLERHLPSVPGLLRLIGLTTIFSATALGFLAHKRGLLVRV
- assaySummary: biochemical
- reportedConditions: single dose concentration of 10 µM; ±sem
Attribute: inhibition at 10 µM
measureName: inhibition at 10 µM (%)

> print(dat)
                                 smilescode  unitname  quantitativereadout
1  COc1ccc(OC)c(/C=C2\Oc3cc(OCCN4CCCC4)ccc3C2=O)c1         %                   65
2  COc1cc(/C=C2\Oc3cc(OCCN4CCCC4)ccc3C2=O)cc(OC)c1OC         %                 99.3
3  COc1cc(/C=C2\Oc3cc(OCCN4CCCCC4)ccc3C2=O)cc(OC)c1OC         %                 27.9
4  CCN(CC)CCOc1ccc2c(c1)O/C(=C\c1cccc(OC)c1)C2=O         %                 46.1
5  COc1cccc(/C=C2\Oc3cc(OCCCN4CCCC4)ccc3C2=O)c1OC         %                 4.37
6  COc1ccc(/C=C2\Oc3cc(OCCCCCN4CCCCC4)ccc3C2=O)cc1OC         %                 4.76
7  COc1ccc(/C=C2\Oc3cc(OCCN4CCCC4)ccc3C2=O)c(OC)c1         %                 41.6
8  COc1ccccc1/C=C1\Oc2cc(OCCN3CCCC3)ccc2C1=O         %                   43

====

- systemName: recombinant human MAO-A (Homo sapiens, UniProt P21397)
- assaySummary: Monoamine oxidase-A inhibition assay (Amplex red fluorescence)
- Type: biochemical
- reportedConditions: single dose concentration of 1 µM; ±sem; NI = no measured inhibition; read-out: % Inhibition MAO-A
measureName: inhibition at 1 µM

> print(dat)
                                  smilescode  result
 1  CCN(CC)CCOc1ccc2c(c1)O/C(=C\c1ccccc1OC)C2=O    < 0%
 2  COc1cccc(/C=C2\Oc3cc(OCCCN4CCCCC4)ccc3C2=O)c1    < 0%
 3  COc1ccc(/C=C2\Oc3cc(OCCCCN4CCCC4)ccc3C2=O)cc1    < 0%
 4  COc1ccc(/C=C2\Oc3cc(OCCCCCN4CCCCC4)ccc3C2=O)cc1OC    < 0%
 5  COc1cc(/C=C2\Oc3cc(OCCN4CCCCC4)ccc3C2=O)cc(OC)c1OC    < 0%
 6  COc1ccc(/C=C2\Oc3cc(OCCCN4CCCC4)ccc3C2=O)cc1OC    < 0%
 7  COc1ccc(/C=C2\Oc3cc(OCCN4CCCC4)ccc3C2=O)cc1OC    < 0%
 8  COc1ccccc1/C=C1\Oc2cc(OCCN3CCCC3)ccc2C1=O    < 0%
 9  COc1ccc(OC)c(/C=C2\Oc3cc(OCCCN4CCCC4)ccc3C2=O)c1    < 0%
10  COc1ccc(/C=C2\Oc3cc(OCCN4CCCCC4)ccc3C2=O)cc1   0.92%
11  COc1ccc(/C=C2\Oc3cc(OCCCN4CCCCC4)ccc3C2=O)cc1OC    < 0%
12  COc1cccc(/C=C2\Oc3cc(OCCCN4CCCC4)ccc3C2=O)c1   12.2%
13  COc1cccc(/C=C2\Oc3cc(OCCN4CCCC4)ccc3C2=O)c1    < 0%
14  COc1ccc(/C=C2\Oc3cc(OCCN4CCCC4)ccc3C2=O)c(OC)c1   12.7%
15  COc1ccc(/C=C2\Oc3cc(OCCCN4CCCC4)ccc3C2=O)cc1   9.83%
16  COc1ccc(/C=C2\Oc3cc(OCCCCN4CCCCC4)ccc3C2=O)cc1OC    < 0%
17  COc1cccc(/C=C2\Oc3cc(OCCCN4CCCC4)ccc3C2=O)c1OC    < 0%
18  COc1ccc(OC)c(/C=C2\Oc3cc(OCCN4CCCC4)ccc3C2=O)c1    < 0%
19  COc1ccc(/C=C2\Oc3cc(OCCCN4CCCC4)ccc3C2=O)c(OC)c1    < 0%

Every entry's value here was drawn from paper PMC10215199.
